Would you kindly list Enzyme Activity Endpoint Assay: scIgG for each of these proteins?
# STUDY_TARGET: pooled human IgG (human IgG1,2,3 and 4)
Remember to follow the number with its unit.

Sample PRT-618 (protein) MQITSVWTKGVIPLTPEQFRYNNEDVIHAPYLPHQGWYDITKAFDGGDNLLCGAATAGNMLHWWFDQNKTEIEAYLSKYPEKQKIIFNNQELFDLRAAINTKDSQTNSQLFNYFRDKAFPNLSARQLGVMPDLVLDMFINGYYLNVFKTQSTDVNRPYQDRDKRGGIFDHVFGRGDQTTLLTARHDLKNGGLNDISTIIKQELQSGRALALSHTYANVSISHVINLWGADFNAEGNLEAIYVTDSDANSSIGMKKYYVGINAHGHVAISAKKIEGENIGAQVLGLFTLSSGKEIWQKLSLEHHHHHH — what was its Enzyme Activity Endpoint Assay: scIgG?
0 ng/µL

Lookup PRT-259 (protein) MVTSVWTKGVTPPTNFTYGEDVLHAPYVANQGWYDITKTFNGKDNLLCGAATAGNMLHWWFDQNKEQIENYLKKHPEKQKINFNGEQLFDVKEAIDTKDSQLDSKLFEYFKEKAFPNLSTKHLGVFPDHVIDMFINGYRLSLLNHGPTPVKRGSKDKRGGIFDAVFTRGVQSKLLTNRHDFKEKTLKEISDLIKQELTEGKALGISHTYANVRINHVINLWGADFDAEGNLEAIYVTDSDTNASIGMKKYFVGVNSSGKVAISAKEIEEDNIGAQVLGLFTLSTGQDIWNQTN
0 ng/µL
